- Tested on: Bacillus subtilis
- ASSAY_OVERVIEW: cleaved RNA product abundance (RNA/gDNA barcode ratio) relative to median wild-type variant (ratio to wild type); higher = more accumulation of the downstream cleavage product
- MEASUREMENT_PARAMETERS: experiment (reporter, strain, medium): exp 2b: truncated aprE reporter, strain BJT200; cleavage site: cggR-gapA (positions -7 to +36 mutated)
Think of 0.2 as a floor: if cleaved RNA product abundance stands on it or above, it is 1; beneath it, 0.

Reference set, count: 3
{"SEQUENCE_RECORD": "ACAGACGAAGGAGCCGCAAAGAAGTTATTAAGGGATGAATTATCCCTCAACATAAATATCTCTCACTTATTTAAA", "ASSAY_TARGET": "Bacillus subtilis", "QUALITATIVE_LABEL": 0}
{"SEQUENCE_RECORD": "ACAGACGAAGGAGCCGCAAAGAAGCTAATAAGGGATGAATAATCCCTCAATATAAATATCTCTCACTTATTTAAA", "ASSAY_TARGET": "Bacillus subtilis", "QUALITATIVE_LABEL": 1}
{"SEQUENCE_RECORD": "ACAGACGAAGGAGCCGCAAAGAAGTTATTAAGGGATGATTAATCCCTCAATATAAATATCTCTCACTTATTTAAA", "ASSAY_TARGET": "Bacillus subtilis", "QUALITATIVE_LABEL": 1}

Next item in the queue.
input: Dear colleague, could you confirm whether ACAGACGAAGGAGCCGCAAAGAAGTTATCAAGGGATGAATAATCCCTCAATATAAATATCTCTCACTTATTTAAA has cleaved RNA product abundance at or above 0.2?
output: 1

----------
- Tested on: Bacillus subtilis
- ASSAY_OVERVIEW: cleaved RNA product abundance (RNA/gDNA barcode ratio) relative to median wild-type variant (ratio to wild type); higher = more accumulation of the downstream cleavage product
- MEASUREMENT_PARAMETERS: experiment (reporter, strain, medium): exp 8a: truncated aprE reporter, strain BJT201 with 2% xylose (RNase J1 expressed); cleavage site: glnRA (positions -5 to +31 mutated)
QUANTITY_MEASURED: cleaved RNA product abundance
Numbers only.

Consider the following illustrative entries.
{"SEQUENCE_RECORD": "CGACATGTCCCGCTTCTTTCATTAATCCGTTAGCAACTGTATTGCTATATACATATACCTTTTAAGAGGAGGAAT", "DATA_VALUE": 0.755}
{"SEQUENCE_RECORD": "CGACATGTCCCGCTTCTTTCATTAATCCGTTTGCAACTGTTTTGCTATATACATTTACGTTTTAAGAGGAGGAAT", "DATA_VALUE": 0.661}

Parameters: items (list). Returns: cleaved RNA product abundance for each item.
1. CGACATGTCCCGCTTCTTTCATTAATCCGTTAGCATCTTTTTTGCTATATACATTTACCTTTTAAGAGGAGGAAT
2. CGACATGTCCCGCTTCTTTCATTAATCCGATAGCAACTTTTTTGCTATATACATTTACCTTTTAAGAGGAGGAAT

output:
1. 0.995
2. 1.24

# per-item lookup of cleaved RNA product abundance; items listed below
1. CGACATGTCCCGCTTCTTTCATTAACCCGTTAGCAACTGTTTTGCCATATACATTTACCTTTTAAGAGGAGGAAT
2. CGACATGTCCCGCTTCTTTCATTAATCCATTAGAAACTGTTTTTCTATTTACATTTACCTTTTAAGAGGAGGAAT
3. CGACATGTCCCGCTTCTTTCATTAATCCGTTAGCAACTGTTTTGCTATATACATTTAGCTTTTAAGAGGAGGAAT
4. CGACATGTCCCGCTTCTTTCATTAATCTGTTATCAACTGTTTTGCTATATACATTTACCTTTTAAGAGGAGGAAT

output:
1: 0.158; 2: 0.127; 3: 1.07; 4: 0.403

----------
- System: Bacillus subtilis
- ASSAY_OVERVIEW: cleaved RNA product abundance (RNA/gDNA barcode ratio) relative to median wild-type variant (ratio to wild type); higher = more accumulation of the downstream cleavage product
- MEASUREMENT_PARAMETERS: experiment (reporter, strain, medium): exp 8a: truncated aprE reporter, strain BJT201 with 2% xylose (RNase J1 expressed); cleavage site: glnRA (positions -5 to +31 mutated)
Would you kindly list cleaved RNA product abundance for each of these sequences?
One number for each entry.

{"SEQUENCE_RECORD": "CGACATGTCCCGCTTCTTTCATTAATACGTTAGTAACTGTTTTGCTAAATACATTTACCTTTTAAGAGGAGGAAT", "ASSAY_TARGET": "Bacillus subtilis", "QUANTITY_MEASURED": "cleaved RNA product abundance", "DATA_VALUE": 0.285}

Your task in this section: give cleaved RNA product abundance for each listed record.
1. CGACATGTCCCGCTTCTTTCATTAATCCGTTAGCAACTGTTTTGCTATATACATTCACCTTTTAAGAGGAGGAAT
2. CGACATGTCCCGCTTCTTTCATTAATCCGTTATCAACTGTGTTGCTATATACATTTACCTTTTAAGAGGAGGAAT
3. CGACATGTCCCGCTTCTTTCATTACTCCCTTAGCAACTGTTTTGCTATATACATTTACCTTTTAAGAGGAGGAAT
4. CGACATGTCCCGCTTCTTTCATTAATCCGTAAGCAACTGATTTGCTATATACATTTACCTTTTAAGAGGAGGAAT
5. CGACATGTCCCGCTTCTTTCATTAATCCGTAAGCAACTGTTTTGCTATATACATTTACTTTTTAAGAGGAGGAAT
6. CGACATGTCCCGCTTCTTTCATTAATCCGTTAGAAACTGTTTTGCTATATACATTTACCTTTTAAGAGGAGGAAT

output:
1. 0.581
2. 0.27
3. 0.223
4. 0.25
5. 0.641
6. 0.292

----------
- Test system: Bacillus subtilis
- ASSAY_OVERVIEW: cleaved RNA product abundance (RNA/gDNA barcode ratio) relative to median wild-type variant (ratio to wild type); higher = more accumulation of the downstream cleavage product
- MEASUREMENT_PARAMETERS: experiment (reporter, strain, medium): exp 8a: truncated aprE reporter, strain BJT201 with 2% xylose (RNase J1 expressed); cleavage site: glnRA (positions -5 to +31 mutated)
QUANTITY_MEASURED: cleaved RNA product abundance

{"SEQUENCE_RECORD": "CGACATGTCCCGCTTCTTTCATTATCCCGTTAGCAACTGTTTTGCTATATACTTTTACCTTTTAAGAGGAGGAAT", "cleaved RNA product abundance": 0.41}
{"SEQUENCE_RECORD": "CGACATGTCCCGCTTCTTTCATTAATCAGTTATCAACTGTTTTGCTATATACATTTACCTTTTAAGAGGAGGAAT", "cleaved RNA product abundance": 0.307}
{"SEQUENCE_RECORD": "CGACATGTCCCGCTTCTTTCATTAATCCGTTAGCAACTGTTTTCCTATATATATTTACCTTTTAAGAGGAGGAAT", "cleaved RNA product abundance": 0.505}

Kindly give each listed record's cleaved RNA product abundance.
1. CGACATGTCCCGCTTCTTTCATTATTCCGTTAGCAACTGTTTTGCTATATAGATTTAACTTTTAAGAGGAGGAAT
2. CGACATGTCCCGCTTCTTTCATTAATCCGTTACCAACTGTTTTGCTATATACAATTACCTTTTAAGAGGAGGAAT
3. CGACATGTCCCGCTTCTTTCATTATTCCGTTAGCAACTGTTTTGCTATATACGTTTACCTTTTAAGAGGAGGAAT
4. CGACATGTCCCGCTTCTTTCATTAATCCGTTACCAACTGTTTTGCAATATACATTTACCTTTTAAGAGGAGGAAT

output:
1. 0.911
2. 0.181
3. 0.645
4. 0.26

----------
- Tested on: Bacillus subtilis
- ASSAY_OVERVIEW: cleaved RNA product abundance (RNA/gDNA barcode ratio) relative to median wild-type variant (ratio to wild type); higher = more accumulation of the downstream cleavage product
- MEASUREMENT_PARAMETERS: experiment (reporter, strain, medium): exp 4a: truncated aprE reporter, strain BJT201 with 2% xylose (RNase J1 expressed); cleavage site: cggR-gapA (positions -7 to +36 mutated)
Give label 1 when the value for cleaved RNA product abundance is at least 0.3. Give label 0 when it is less.

Completed entries (count: 5):
{"SEQUENCE_RECORD": "ACAGACGAAGGAGCCGCAAAGAAGTTATTAAGGGATGATGAATCCCTCAATATAAATATCTCTCACTTATTTAAA", "QUALITATIVE_LABEL": "label 1"}
{"SEQUENCE_RECORD": "ACAGACGAAGGAGCCGCAAAGAAGTTATTAAGGGATGAATTATCCCTTAATATAAATATCTCTCACTTATTTAAA", "QUALITATIVE_LABEL": "label 1"}
{"SEQUENCE_RECORD": "ACAGACGAAGGAGCCGCAAAGAAGATATTAAGGGATGTATAATCCCTCAATATAAATATCTCTCACTTATTTAAA", "QUALITATIVE_LABEL": "label 1"}
{"SEQUENCE_RECORD": "ACAGACGAAGGAGCCGCAATGAAGTTATTAAGGGAAGAATAATCCCTCAATATAAATATCTCTCACTTATTTAAA", "QUALITATIVE_LABEL": "label 1"}
{"SEQUENCE_RECORD": "ACAGACGAAGGAGCCGCAAAGAAGTTACTAAGGGATGGATAATCCCTCAATATAAATATCTCTCACTTATTTAAA", "QUALITATIVE_LABEL": "label 0"}

Next sequence, please.
input: Does the reported cleaved RNA product abundance for ACAGACGAAGGAGCCGCAAAGAATTTATTAAGGGATGAATAATCCCACAATATAAATATCTCTCACTTATTTAAA fall at or above the 0.3 mark?
output: label 0
